As shown below, each of these compounds has a reported total RNA concentration, times that of SM-102 value.
Assay: Detection of encapsulation efficiency, drug loading concentration and total RNA concentration (RiboGreen)
Assay type: physicochemical
Details: ratio vs SM-102
measured-metric: total RNA concentration, times that of SM-102

# smiles-representation, test-result
rows = [
    ("CCCCCCCCC(CCCCCCCC)OC(=O)CCCCCCCN(CCO)CCN(CCO)CCCCCCCC(=O)OC(CCCCCCCC)CCCCCCCC", 1.12),
    ("CCCCCCCCC(CCCCCCCC)C(=O)OCCCCCCN(CCO)CCN(CCO)CCCCCCOC(=O)C(CCCCCCCC)CCCCCCCC", 1.11),
    ("CCCCCCCCC(CCCCCCCC)OC(=O)CCCCCN(CCO)CCN(CCO)CCCCCC(=O)OC(CCCCCCCC)CCCCCCCC", 1.16),
    ("CCCCCCCCC(CCCCCCCC)COC(=O)CCCCCN(CCCO)CCCN(CCCO)CCCCCC(=O)OCC(CCCCCCCC)CCCCCCCC", 1.14),
    ("CCCCCCCCCCCOC(=O)CCCN(CCO)CCN(CCO)CCCCCC(=O)OC(CCCCCCCC)CCCCCCCC", 1.13),
    ("CCCCCCCCC(CCCCCCCC)COC(=O)CCCCCN(CCCO)CCN(CCCO)CCCCCC(=O)OCC(CCCCCCCC)CCCCCCCC", 1.27),
]

----------
System: 293T cells
Test: Cell survival rate assay (CCK-8)
Assay type: cell-based
Conditions: difference vs YK-421
cell survival rate higher than YK-421 values by entry
measured-metric: cell survival rate higher than YK-421 (%)

# compound, result-unit, test-result
measured = [
    ("CCCCCCCCC(CCCCCCCC)OC(=O)CCCCCN(CCO)CCN(CCO)CCCCCC(=O)OC(CCCCCCCC)CCCCCCCC [YK-401]", "%", 39.50),
    ("CCCCCCCCC(CCCCCCCC)OC(=O)CCCCCCCN(CCO)CCN(CCO)CCCCCCCC(=O)OC(CCCCCCCC)CCCCCCCC [YK-403]", "%", 35.05),
    ("CCCCCCCCC(CCCCCCCC)C(=O)OCCCCCCN(CCO)CCN(CCO)CCCCCCOC(=O)C(CCCCCCCC)CCCCCCCC [YK-402]", "%", 36.99),
    ("CCCCCCCCC(CCCCCCCC)COC(=O)CCCCCN(CCCO)CCCN(CCCO)CCCCCC(=O)OCC(CCCCCCCC)CCCCCCCC [YK-423]", "%", 35.43),
    ("CCCCCCCCC(CCCCCCCC)COC(=O)CCCCCN(CCCO)CCN(CCCO)CCCCCC(=O)OCC(CCCCCCCC)CCCCCCCC [YK-422]", "%", 34.77),
    ("CCCCCCCCCCCOC(=O)CCCN(CCO)CCN(CCO)CCCCCC(=O)OC(CCCCCCCC)CCCCCCCC [YK-407]", "%", 35.66),
]

----------
Listed here: items and their measured cell survival rate higher than YK-424.
Tested on: 293T cells
Test: Cell survival rate assay (CCK-8)
Format: cell-based
Conditions: difference vs YK-424
measured-metric: cell survival rate higher than YK-424 (%)

# smiles-representation, tested-system, result-unit, test-result
records = [
    ("CCCCCCCCC(CCCCCCCC)COC(=O)CCCCCN(CCCO)CCN(CCCO)CCCCCC(=O)OCC(CCCCCCCC)CCCCCCCC", "293T cells", "%", 42.55),
    ("CCCCCCCCC(CCCCCCCC)COC(=O)CCCCCN(CCCO)CCCN(CCCO)CCCCCC(=O)OCC(CCCCCCCC)CCCCCCCC", "293T cells", "%", 43.21),
    ("CCCCCCCCC(CCCCCCCC)OC(=O)CCCCCCCN(CCO)CCN(CCO)CCCCCCCC(=O)OC(CCCCCCCC)CCCCCCCC", "293T cells", "%", 42.83),
    ("CCCCCCCCC(CCCCCCCC)OC(=O)CCCCCN(CCO)CCN(CCO)CCCCCC(=O)OC(CCCCCCCC)CCCCCCCC", "293T cells", "%", 47.28),
    ("CCCCCCCCC(CCCCCCCC)C(=O)OCCCCCCN(CCO)CCN(CCO)CCCCCCOC(=O)C(CCCCCCCC)CCCCCCCC", "293T cells", "%", 44.77),
    ("CCCCCCCCCCCOC(=O)CCCN(CCO)CCN(CCO)CCCCCC(=O)OC(CCCCCCCC)CCCCCCCC", "293T cells", "%", 43.44),
]

----------
Test system: 293T cells
Test: Cell survival rate assay (CCK-8)
Type: cell-based
Details: difference vs YK-409
# cell survival rate higher than YK-409 listing for each entry below
measured-metric: cell survival rate higher than YK-409

# smiles-representation, measured-metric, test-result
data = [
    ("CCCCCCCCC(CCCCCCCC)COC(=O)CCCCCN(CCCO)CCCN(CCCO)CCCCCC(=O)OCC(CCCCCCCC)CCCCCCCC", "cell survival rate higher than YK-409", "25.03%"),
    ("CCCCCCCCC(CCCCCCCC)OC(=O)CCCCCN(CCO)CCN(CCO)CCCCCC(=O)OC(CCCCCCCC)CCCCCCCC", "cell survival rate higher than YK-409", "29.10%"),
    ("CCCCCCCCC(CCCCCCCC)C(=O)OCCCCCCN(CCO)CCN(CCO)CCCCCCOC(=O)C(CCCCCCCC)CCCCCCCC", "cell survival rate higher than YK-409", "26.59%"),
    ("CCCCCCCCC(CCCCCCCC)OC(=O)CCCCCCCN(CCO)CCN(CCO)CCCCCCCC(=O)OC(CCCCCCCC)CCCCCCCC", "cell survival rate higher than YK-409", "24.65%"),
    ("CCCCCCCCCCCOC(=O)CCCN(CCO)CCN(CCO)CCCCCC(=O)OC(CCCCCCCC)CCCCCCCC", "cell survival rate higher than YK-409", "25.26%"),
    ("CCCCCCCCC(CCCCCCCC)COC(=O)CCCCCN(CCCO)CCN(CCCO)CCCCCC(=O)OCC(CCCCCCCC)CCCCCCCC", "cell survival rate higher than YK-409", "24.37%"),
]

----------
System: 293T cells
Assay: Cell survival rate assay (CCK-8)
Format: cell-based
Conditions: difference vs HIMA (HHMA)

# molecule, result-unit, cell survival rate higher than HIMA
data = [
    ("CCCCCCCCC(CCCCCCCC)COC(=O)CCCCCN(CCCO)CCN(CCCO)CCCCCC(=O)OCC(CCCCCCCC)CCCCCCCC [YK-422]", "%", 6.21),
    ("CCCCCCCCC(CCCCCCCC)C(=O)OCCCCCCN(CCO)CCN(CCO)CCCCCCOC(=O)C(CCCCCCCC)CCCCCCCC [YK-402]", "%", 8.43),
    ("CCCCCCCCC(CCCCCCCC)OC(=O)CCCCCCCN(CCO)CCN(CCO)CCCCCCCC(=O)OC(CCCCCCCC)CCCCCCCC [YK-403]", "%", 6.49),
    ("CCCCCCCCCCCOC(=O)CCCN(CCO)CCN(CCO)CCCCCC(=O)OC(CCCCCCCC)CCCCCCCC [YK-407]", "%", 7.10),
    ("CCCCCCCCC(CCCCCCCC)COC(=O)CCCCCN(CCCO)CCCN(CCCO)CCCCCC(=O)OCC(CCCCCCCC)CCCCCCCC [YK-423]", "%", 6.87),
    ("CCCCCCCCC(CCCCCCCC)OC(=O)CCCCCN(CCO)CCN(CCO)CCCCCC(=O)OC(CCCCCCCC)CCCCCCCC [YK-401]", "%", 10.94),
]

----------
Assay: Particle size and polydispersity index (PDI) of lipid nanoparticles by dynamic light scattering
Assay type: physicochemical
Details: LNP formulation of the cationic lipid/DSPC/cholesterol/DMG-PEG2000 49:10:39.5:1.5, 25° C.
# maps each entry to its Particle size
measured-metric: Particle size (nm)

# compound, test-result
rows = [
    ("CCCCCCCCCCOC(=O)CCCN(CCO)CCCN(CCO)CCCCCCOC(=O)CC(CCCCCC)CCCCCC [YK-418]", 149),
    ("CCCCCCCCCCOC(=O)CCCCCN(CCO)CCCN(CCO)CCCCCC(=O)OCCC(CCCCCC)CCCCCC [YK-417]", 128),
    ("CCCCCCCCCCOC(=O)CCCN(CCO)CCN(CCO)CCCCCC(=O)OC(CCCCCCCC)CCCCCCCC [YK-405]", 141),
    ("CCCCCCCCC(CCCCCCCC)OC(=O)CCCCCN(CCO)CCN(CCO)CCCCCC(=O)OC(CCCCCCCC)CCCCCCCC [YK-401]", 152),
]

----------
Test system: 293T cells
Test: Cell survival rate assay (CCK-8)
Format: cell-based
Conditions: difference vs YK-414
Recorded cell survival rate higher than YK-414, one value per entry.

# compound, tested-system, cell survival rate higher than YK-414 (%)
rows = [
    ("CCCCCCCCC(CCCCCCCC)OC(=O)CCCCCN(CCO)CCN(CCO)CCCCCC(=O)OC(CCCCCCCC)CCCCCCCC [YK-401]", "293T cells", 46.46),
    ("CCCCCCCCC(CCCCCCCC)OC(=O)CCCCCCCN(CCO)CCN(CCO)CCCCCCCC(=O)OC(CCCCCCCC)CCCCCCCC [YK-403]", "293T cells", 42.01),
    ("CCCCCCCCC(CCCCCCCC)COC(=O)CCCCCN(CCCO)CCN(CCCO)CCCCCC(=O)OCC(CCCCCCCC)CCCCCCCC [YK-422]", "293T cells", 41.73),
    ("CCCCCCCCCCCOC(=O)CCCN(CCO)CCN(CCO)CCCCCC(=O)OC(CCCCCCCC)CCCCCCCC [YK-407]", "293T cells", 42.62),
    ("CCCCCCCCC(CCCCCCCC)C(=O)OCCCCCCN(CCO)CCN(CCO)CCCCCCOC(=O)C(CCCCCCCC)CCCCCCCC [YK-402]", "293T cells", 43.95),
    ("CCCCCCCCC(CCCCCCCC)COC(=O)CCCCCN(CCCO)CCCN(CCCO)CCCCCC(=O)OCC(CCCCCCCC)CCCCCCCC [YK-423]", "293T cells", 42.39),
]
